Entries and their measured selectivity ratio follow.
PROCEDURE_TEXT: Selectivity index, ratio of IC50 for rat L6 cells to IC50 for Trypanosoma brucei rhodesiense STIB900
Assay type: toxicity
MEASUREMENT_SETUP: read-out: Ratio IC50
Output spec: single numeric token, no unit.

In [3]: df
Out[3]:
                                   compound  numeric_result
0  CC1(C)C(Cc2ccccc2)C(=[N+]2CCCC2)C=CN1Cc1ccccc1 (racemic)             376
1  CC1(C)C(Cc2ccccc2)C(=[N+]2CCCC2)C=CN1Cc1ccc(Cl)cc1 (racemic)             316

// below: selectivity ratio requested for another compound
// sample CC1(C)C(Cc2ccc(Cl)cc2)C(=[N+]2CCCCC2)C=CN1Cc1ccc(Cl)cc1 (racemic) , its selectivity ratio was 79.3
